List of log10(IC50) values.
biological target: KRas G12R (Homo sapiens, UniProt P01116, G12R); test: biochemical;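 note: TR-FRET displacement assay of compound binding to KRas, read after one hour at room temperature, potency from a four-parameter fit of percent-of-control values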
Sequence (P01116 1-169 isoform P01116-2 G12R): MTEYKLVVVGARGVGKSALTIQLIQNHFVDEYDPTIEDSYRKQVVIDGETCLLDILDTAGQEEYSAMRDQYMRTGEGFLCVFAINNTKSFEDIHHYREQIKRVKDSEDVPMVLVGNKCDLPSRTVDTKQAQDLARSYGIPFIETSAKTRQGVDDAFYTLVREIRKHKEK
For clarity, the numbers are log10 values of IC50 expressed in nM.

These solved cases illustrate the format of a correct answer.
CCc1c(F)ccc2cc(O)cc(-c3ncc4c(N5CCC[C@@](C)(O)C5)nc(OC[C@]56CCCN5[C@@H](COC(=O)N(C)C)CC6)nc4c3F)c12: 0.60
O=C1NCC12CCCN(c1nc(OC[C@@]34CCCN3C[C@H](F)C4)nc3c(F)c(-c4cc(O)cc5ccc(F)c(Cl)c45)ncc13)C2 (stereo partly shown): 0.90
OC1CCCN(c2nc(OCC34CCCN3CCC4)nc3c(F)c(-c4cccc5cccc(F)c45)ncc23)CC1 (stereo not shown) [Example 8]: 3.73
CCc1cccc2cccc(-c3ncc4c(NCc5cccnc5N)nc(OCC56CCCN5CCC6)nc4c3F)c12: 1.32
Fc1c(-c2cccc3cccc(F)c23)ncc2c(NCc3cn[nH]c3)nc(OCC34CCCN3CCC4)nc12: 3.53
CC1CCCN(c2nc(OCC34CCCN3CCC4)nc3c(F)c(-c4cccc5cccc(F)c45)ncc23)C1 (stereo not shown): 4.17
CCc1c(F)ccc2cc(O)cc(-c3ncc4c(N5CCC[C@@](C)(O)C5)nc(OC[C@@H]5CCCN5C)nc4c3F)c12: 0.48
CC1(O)CCCN(c2nc(OCC34CCCN3CCC4)nc3c(F)c(-c4cccc5cccc(F)c45)ncc23)C1 (stereo not shown): 3.35

# input Using the record for NS(=O)(=O)CC1CCCN(c2nc(OCC34CCCN3CCC4)nc3c(F)c(-c4cccc5cccc(F)c45)ncc23)C1 (stereo not shown) , state its measured log10(IC50).
# output 2.28

# input Using the record for O=C1NCC2(CCCN(c3nc(OCC45CCCN4CCC5)nc4c(F)c(-c5cccc6cccc(F)c56)ncc34)C2)N1 (stereo not shown) , state its measured log10(IC50).
# output 2.56

----------
List of pIC50 values.
molecular target: KRas G12A (Homo sapiens, UniProt P01116, G12A); experiment: biochemical
Sequence (P01116 1-169 isoform P01116-2 G12A): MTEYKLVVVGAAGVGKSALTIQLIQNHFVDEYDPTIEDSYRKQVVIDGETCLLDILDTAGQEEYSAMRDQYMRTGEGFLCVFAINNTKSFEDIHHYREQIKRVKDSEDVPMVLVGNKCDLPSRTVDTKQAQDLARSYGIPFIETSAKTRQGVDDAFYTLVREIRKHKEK
The read-out pIC50 is expressed as -log10 of concentration in moles per litre.

These solved cases illustrate the format of a correct answer.
CC1(O)CCCN(c2nc(OCC34CCCN3CCC4)nc3c(F)c(-c4cccc5cccc(F)c45)ncc23)C1 (stereo not shown) [Example 17]: 6.02
N#Cc1cccc2cccc(-c3ncc4c(N5CCCC6(CC(=O)N6)C5)nc(OCC56CCCN5CCC6)nc4c3F)c12 (stereo not shown) [Example 451]: 5.51

# input Using the record for Fc1c(-c2cccc3cccc(F)c23)ncc2c(N3CCCC4(COC4)C3)nc(OCC34CCCN3CCC4)nc12 [Example 220] , state its measured pIC50.
# output 5.17

# input Using the record for CCc1cccc2cccc(-c3ncc4c(N5CCCC6(CNC(=O)C6)C5)nc(OCC56CCCN5CCC6)nc4c3F)c12 (stereo not shown) [Example 286] , state its measured pIC50.
# output 6.43

# input Using the record for O=C1CC(CNc2nc(OCC34CCCN3CCC4)nc3c(F)c(-c4cccc5cccc(F)c45)ncc23)C(=O)N1 (stereo not shown) [Example 236] , state its measured pIC50.
# output 5.47

# input Using the record for Fc1c(-c2cccc3cccc(F)c23)ncc2c(NCc3nnc4cccnn34)nc(OCC34CCCN3CCC4)nc12 [Example 122] , state its measured pIC50.
# output 4.84

# input Using the record for O=C(O)[C@H]1C[C@H](Nc2nc(OCC34CCCN3CCC4)nc3c(F)c(-c4cccc5cccc(F)c45)ncc23)C1 [Example 91] , state its measured pIC50.
# output 4.90

----------
molecular target: KRas G12V (Homo sapiens, UniProt P01116, G12V); experiment: biochemical;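 note: KRas binding measured by TR-FRET displacement at room temperature, IC50 fitted from percent of control values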
Sequence (P01116 1-169 isoform P01116-2 G12V): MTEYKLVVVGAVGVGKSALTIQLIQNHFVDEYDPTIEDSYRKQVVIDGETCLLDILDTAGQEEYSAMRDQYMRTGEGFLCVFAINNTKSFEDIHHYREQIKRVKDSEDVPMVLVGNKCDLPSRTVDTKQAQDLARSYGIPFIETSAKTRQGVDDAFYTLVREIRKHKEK
List of IC50 values.

These solved cases illustrate the format of a correct answer.
CNS(=O)(=O)C1CCCN(c2nc(OCC34CCCN3CCC4)nc3c(F)c(-c4cccc5cccc(F)c45)ncc23)C1 (stereo not shown): 7.61 µM
CN(C)CC1(COc2nc(N3CCC[C@@](C)(O)C3)c3cnc(-c4cc(O)cc(Cl)c4C4CC4)c(F)c3n2)CC1: 0.003 µM
OCC1CCCN(c2nc(OCC34CCCN3CCC4)nc3c(F)c(-c4cccc5cccc(F)c45)ncc23)C1 (stereo not shown): 12 µM
CCc1cccc2cccc(-c3ncc4c(N5CCCC6(CNC(=O)C6)C5)nc(OCC56CCCN5CCC6)nc4c3F)c12 (stereo not shown): 0.521 µM
CCc1c(F)ccc2cc(O)cc(-c3ncc4c(N5CCCC6(CNC(=O)N6)C5)nc(OC[C@@]56CCCN5C[C@H](F)C6)nc4c3F)c12 (stereo partly shown): ≤ 0.002 µM
CCc1c(F)ccc2cccc(-c3ncc4c(N5CCC[C@@](C)(O)C5)nc(OCC56CCCN5CCC6)nc4c3F)c12: 0.042 µM

Next, consider the following molecule.
# input Using the record for `CCc1c(F)ccc2cc(O)cc(-c3ncc4c(N5CCCc6nn(C(=O)NC(C)C)cc6C5)nc(OC[C@@]56CCCN5C[C@H](F)C6)nc4c3F)c12` , state its measured IC50.
# output 0.004 µM

----------
molecular target: KRas G12D (Homo sapiens, UniProt P01116, G12D); assay: biochemical
Sequence (P01116 1-169 isoform P01116-2 G12D): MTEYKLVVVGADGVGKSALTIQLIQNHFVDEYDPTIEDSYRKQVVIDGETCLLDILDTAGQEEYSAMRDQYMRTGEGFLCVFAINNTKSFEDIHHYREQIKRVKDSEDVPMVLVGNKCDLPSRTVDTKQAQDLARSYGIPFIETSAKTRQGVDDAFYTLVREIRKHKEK
Readout Type: IC50

# input Using the record for CCc1c(F)ccc2cc(O)cc(-c3ncc4c(N5CCCC6(CC(=O)NC6=O)C5)nc(OC[C@@]56CCCN5C[C@H](F)C6)nc4c3F)c12 (stereo partly drawn) , state its measured IC50.
# output ≤ 2 nM

# input Using the record for `CCc1c(F)ccc2cc(O)cc(-c3ncc4c(N5CCOC[C@@](C)(O)C5)nc(OCC5(CN6CCCC6)CC5)nc4c3F)c12` , state its measured IC50.
# output ≤ 2 nM

# input Using the record for `CCc1c(F)ccc2cc(O)cc(-c3ncc4c(NCCCc5ccncc5)nc(OC[C@@]56CCCN5C[C@H](F)C6)nc4c3F)c12` , state its measured IC50.
# output 108 nM

# input Using the record for CCc1c(F)ccc2cc(O)cc(-c3ncc4c(N5C[C@H](O)C[C@@H](O)C5)nc(OC[C@@]56CCCN5C[C@H](F)C6)nc4c3F)c12 [Example 59] , state its measured IC50.
# output ≤ 2 nM

# input Using the record for `CCc1c(F)ccc2cc(O)cc(-c3ncc4c(N5CCC[C@@](C)(O)C5)nc(OC[C@]56CCCN5[C@H](COC(=O)N(C)C)CC6)nc4c3F)c12` , state its measured IC50.
# output ≤ 2 nM

# input Using the record for `CCc1c(F)ccc2cc(O)cc(-c3ncc4c(NCc5ccc6nonc6c5)nc(OC[C@@]56CCCN5C[C@H](F)C6)nc4c3F)c12` , state its measured IC50.
# output 38 nM

----------
biological target: KRas G12D (Homo sapiens, UniProt P01116, G12D); assay: biochemical
pIC50: −log10 of the molar value.
Binary classification by pIC50, with 6 as an inclusive lower bound for true; all other cases are false.

Completed entries (count: 5):
N#CC1CCCN(c2nc(OCC34CCCN3CCC4)nc3c(F)c(-c4cccc5cccc(F)c45)ncc23)CC1 (stereo not drawn) [Example 87]: false
CS(=O)(=O)C1COCCN(c2nc(OCC34CCCN3CCC4)nc3c(F)c(-c4cccc5cccc(F)c45)ncc23)C1 (stereo not drawn) [Example 271]: false
CCc1c(F)ccc2cc(O)cc(-c3ncc4c(NCC5(O)CCCCC5)nc(OC[C@@]56CCCN5C[C@H](F)C6)nc4c3F)c12 [Example 52]: true
O=C1NC[C@]2(CCCN(c3nc(OC[C@@]45CCCN4C[C@H](F)C5)nc4c(F)c(-c5cc(O)cc6ccc(F)c(Cl)c56)ncc34)C2)N1 [Example 415]: true
O=C1NCC2(CCN(c3nc(OCC45CCCN4CCC5)nc4c(F)c(-c5cccc6cccc(F)c56)ncc34)CC2)N1 [Example 217]: false

Here is the next item to consider.
# input Would you say C#Cc1c(F)ccc2cc(O)cc(-c3ncc4c(N5CCOC[C@](C)(O)C5)nc(OC[C@@]56CCCN5C[C@H](F)C6)nc4c3F)c12 (single isomer, unassigned) [Example 386] shows pIC50 at minimum 6?
# output true

----------
biological target: KRas G12D (Homo sapiens, UniProt P01116, G12D); assay: biochemical;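 note: TR-FRET displacement binding assay on KRas, read after a one-hour incubation at room temperature, IC50 fitted from percent-of-control values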
List of log10(IC50) values.
For clarity, the numbers are log10 values of IC50 expressed in nM.

These solved cases illustrate the format of a correct answer.
O=C1NC(=O)C2(COCCN(c3nc(OCC45CCCN4CCC5)nc4c(F)c(-c5cccc6cccc(F)c56)ncc34)C2)N1 (stereo not shown) [Example 272]: 2.29
NS(=O)(=O)CC1CCCN(c2nc(OCC34CCCN3CCC4)nc3c(F)c(-c4cccc5cccc(Cl)c45)ncc23)C1 (stereo not shown) [Example 281]: 2.33
O=C1CC(CNc2nc(OCC34CCCN3CCC4)nc3c(F)c(-c4cccc5cccc(Cl)c45)ncc23)CN1 (stereo not shown) [Example 102]: 3.36
CCc1c(F)ccc2cc(O)cc(-c3ncc4c(N5CCC[C@@](C)(O)C5)nc(OCC(C)(C)CN(C)C)nc4c3F)c12 [Example 366]: 0.48

# input Using the record for Cc1cc2sc(N)nc2c(-c2ncc3c(N4CCCC(C)(O)C4)nc(OCC45CCCN4CCC5)nc3c2F)c1C (stereo not shown) [Example 40] , state its measured log10(IC50).
# output 4.74

# input Using the record for Fc1c(-c2cccc3cccc(F)c23)ncc2c(NCc3ccc4nonc4c3)nc(OCC34CCCN3CCC4)nc12 [Example 125] , state its measured log10(IC50).
# output 4.78

# input Using the record for CCc1c(F)ccc2cc(O)cc(-c3ncc4c(NCc5c[nH]c6ncccc56)nc(OC[C@@]56CCCN5C[C@H](F)C6)nc4c3F)c12 [Example 62] , state its measured log10(IC50).
# output 0.48

# input Using the record for CCc1c(F)ccc2cc(O)cc(-c3ncc4c(N5CCC[C@@](C)(O)C5)nc(OC[C@@H]5C[C@@H](OC(=O)NC)CN5C)nc4c3F)c12 [Example 12] , state its measured log10(IC50).
# output 0.48

# input Using the record for CCc1c(F)ccc2cc(O)cc(-c3ncc4c(N5CCOC[C@@]6(C5)CC6(F)F)nc(OC[C@@]56CCCN5C[C@H](F)C6)nc4c3F)c12 [Example 498] , state its measured log10(IC50).
# output 0.70

Values compiled from patent US12398154B2.
